property: melting point

These solved cases illustrate the format of a correct answer.
[
  {
    "smi": "Cc1oc(-c2ccc(C(F)(F)F)cc2)cc1CCc1ncc(CC(=O)O)o1",
    "reported": "143 to 144 °C"
  },
  {
    "smi": "Cc1oc(-c2ccc(C(F)(F)F)cc2)cc1COc1cccc(CSC(C)(C)C(=O)O)c1F",
    "reported": "106 to 108 °C"
  },
  {
    "smi": "Cc1oc(-c2ccc(C(F)(F)F)cc2)cc1CCCOc1ccc(CC(=O)O)cc1",
    "reported": "113 to 114 °C"
  },
  {
    "smi": "CCCc1cc(OCc2cc(-c3ccc(C(F)(F)F)cc3)oc2C)ccc1CCC(=O)O",
    "reported": "129 to 131 °C"
  },
  {
    "smi": "Cc1oc(-c2ccc(C(F)(F)F)cc2)cc1COc1ccc(SC(C)(C)C(=O)O)cc1",
    "reported": "128 to 129 °C"
  }
]

## Input # get_value(readout='melting point', item= CCc1oc(-c2ccc(C(F)(F)F)cc2)cc1CCCOc1ccc(CC(=O)O)cc1 )
## Output 121 to 122 °C

## Input Fill in the blank: the reported melting point of Cc1oc(-c2ccc(C(F)(F)F)cc2)cc1COc1cccc(CSC(C)(C)C(=O)O)c1 is ____.
## Output 148 to 149 °C

## Input Look up melting point for this molecule: Cc1oc(-c2ccc(C(F)(F)F)cc2)cc1COc1ccc(OC(C)(C)C(=O)O)c(Cl)c1
## Output 92 to 93 °C
